# Tested Target: E. coli gyrase (Escherichia coli, UniProt P0AES4+P0AES6)
# Construct: purchased Lucent, Ltd., Leicester, UK
# Procedure Summary: DNA gyrase supercoiling inhibition assay
# Assay type: biochemical
# Condition Set: supercoiling of relaxed pBR322, 30 minutes at 37° C.; read-out: DNA Gyrase IC50
Outcome Measure: pIC50
Convention used: pIC50 is expressed as -log10 of the molar concentration.

These solved cases illustrate the format of a correct answer.
Molecule	pIC50
O=C1c2ccc(N3CCCC3)c3cc(Br)cc(c23)C(=O)N1O	5.59
COc1cc2c3c(cccc3c1)C(=O)N(O)C2=O	4.96
O=C1c2cccc3c(Cl)c(Cl)cc(c23)C(=O)N1O	5.31
NC1CCN(c2ccc3c4c(cc(Cl)c(Cl)c24)C(=O)N(O)C3=O)C1.O=C(O)C(F)(F)F (centres unmarked)	5.00
Nc1cc2c3c(cccc3c1Cl)C(=O)N(O)C2=O	4.70

*Q* Give pIC50 only, for `Nc1c(Br)cc2c3c(cccc13)C(=O)N(O)C2=O` , using E. coli gyrase (Escherichia coli, UniProt P0AES4+P0AES6) data.
*A* 5.15

*Q* Give pIC50 only, for `Nc1cc2c3c(cccc3c1)C(=O)N(O)C2=O` , using E. coli gyrase (Escherichia coli, UniProt P0AES4+P0AES6) data.
*A* 5.15
